inhibition reference
# Assay target: Alkaline phosphatase, tissue-nonspecific isozyme (Homo sapiens)
# Test: human TNAP enzyme inhibitors, primary screen, biochemical, luminescent, no phosphate acceptor, uHTS (AID 1012);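 also: 0% = DMSO negative control and 100% = EDTA positive control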
# Run conditions: purified TNAP, CDP-star luminescence, 30 min; at 20 µM; stronger effect = higher value
Among all 200,000 compounds or so, about 520 (0.26%) were called active. The sample holds actives, similar compounds and a random draw of the others, so the mix is not that of the screen.
API: value field is a number in %; no unit string.

> print(dat)
                                   compound                              assay.target  unit.text  reported.measurement
1        CCOc1ccc(/C=N/OCC(=O)NCc2cccs2)cc1  Alkaline phosphatase, tissue-nonspecific isozyme (Homo sapiens)          %                   2.3
2  Cc1c(CCO)sc[n+]1CC(=O)OC12CC3CC(CC(C3)C1)C2  Alkaline phosphatase, tissue-nonspecific isozyme (Homo sapiens)          %                  55.5
3  CC(=O)NC(Cc1ccccc1)C(=O)NC1CCN(c2ncccc2[N+](=O)[O-])CC1 (stereo unspecified)  Alkaline phosphatase, tissue-nonspecific isozyme (Homo sapiens)          %                  -1.2
4        CC(C)(C)C(=O)N1CCC[C@@]1(CO)C(=O)O  Alkaline phosphatase, tissue-nonspecific isozyme (Homo sapiens)          %                 -10.8

Query: Name the reported inhibition value associated with the compound CCOC(=O)C1(CCOC)CCN(Cc2ccc(C(=O)OC)cc2)CC1
Reply: -7

Query: Another: Cc1c(CCOC(=O)CC23CC4CC(CC(C)(C4)C2)C3)sc[n+]1Cc1ccc([N+](=O)[O-])cc1
Reply: -6.1

* * *

# Assay target: Alkaline phosphatase, tissue-nonspecific isozyme (Homo sapiens) (UniProt P05186)
# Sequence (P05186 whole entry, looked up): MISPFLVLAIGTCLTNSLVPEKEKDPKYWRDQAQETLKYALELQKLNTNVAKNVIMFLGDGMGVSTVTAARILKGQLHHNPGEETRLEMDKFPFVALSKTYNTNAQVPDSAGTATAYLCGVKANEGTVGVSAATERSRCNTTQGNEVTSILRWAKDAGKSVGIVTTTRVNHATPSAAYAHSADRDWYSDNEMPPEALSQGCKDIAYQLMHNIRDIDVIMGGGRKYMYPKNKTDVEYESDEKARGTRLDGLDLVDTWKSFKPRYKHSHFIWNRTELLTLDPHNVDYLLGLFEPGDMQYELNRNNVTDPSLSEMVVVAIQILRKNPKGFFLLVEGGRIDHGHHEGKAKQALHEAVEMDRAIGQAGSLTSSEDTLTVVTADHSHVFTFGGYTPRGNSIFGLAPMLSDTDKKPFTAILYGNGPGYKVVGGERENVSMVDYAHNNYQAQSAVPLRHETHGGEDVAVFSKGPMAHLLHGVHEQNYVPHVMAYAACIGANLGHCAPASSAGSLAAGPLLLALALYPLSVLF
# Test: human TNAP enzyme inhibitors, primary screen, biochemical, luminescent, no phosphate acceptor, uHTS (AID 1012);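 also: 0% = DMSO negative control and 100% = EDTA positive control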
# Run conditions: purified TNAP, CDP-star luminescence, 30 min; at 20 µM; stronger effect = higher value
Hit rate of the full screen: of about 200,000 compounds, about 520 (0.26%) were called active. Only a selection was taken, and actives are over-represented in it overall.
Could you label it Condition met if measured inhibition is -10% or higher, and Condition not met otherwise?

# count of solved cases: 3
> print(dat)
                                   compound     classification
1  Cc1cc2c(cc1C)[n+](C)cn2CC(O)COCC1CC=CCC1 (stereo unspecified)      Condition met
2                 COc1ccc(N2C(=O)CNC2=S)cc1  Condition not met
3    COc1ccc(C(=O)Nc2cccc(S(C)(=O)=O)c2)cc1  Condition not met

Query: Would you say CCOc1ccccc1N1CCN(C(=O)COc2ccc3c(C)cc(=O)oc3c2)CC1 shows inhibition at minimum -10%?
Reply: Condition not met

Query: Another: CC(C)Cc1nn2c(=O)cc(O)nc2s1
Reply: Condition not met

Query: Another: O=C(CN1CCSCC1)N/N=C/c1ccc(Cl)cc1
Reply: Condition met

* * *

# Assay target: Alkaline phosphatase, tissue-nonspecific isozyme (Homo sapiens) (UniProt P05186)
# Test: human TNAP enzyme inhibitors, primary screen, biochemical, luminescent, no phosphate acceptor, uHTS (AID 1012);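 also: 0% = DMSO negative control and 100% = EDTA positive control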
# Run conditions: purified TNAP, CDP-star luminescence, 30 min; at 20 µM; stronger effect = higher value
About 520 (0.26%) of roughly 200,000 compounds were called active. What follows is part of a selection rich in actives, with near analogues and random picks from the rest.
Parameter: inhibition (%)
API: value field is a number in %; no unit string.

> print(dat)
                                    molecule   parameter  reported.measurement
 1            CCCCNC(=O)N1CCN(S(C)(=O)=O)CC1  inhibition                  -6.4
 2  C=CCNC(=O)COC(=O)CNC(=O)c1cc(Cl)cc([N+](=O)[O-])c1  inhibition                   6.8
 3  CCOC(=O)NC(=O)C(=CNc1cccc(OC)c1)C(=O)NC(=O)OCC  inhibition                 -10.1
 4  CCCC(c1nnnn1C(C)(C)C)N1CCN(Cc2ccccc2)CC1 (stereo unspecified)  inhibition                  -1.2
 5  O=C(O)C1C2C=CC(O2)C1C(=O)NCCc1cccc(Cl)c1 (stereo unspecified)  inhibition                  -9.5
 6       CC(C)OC(=O)Cn1nc(C(F)(F)F)c2c1CCCC2  inhibition                   0.5
 7             N#C/C=C(/c1ccc(F)cc1)N1CCOCC1  inhibition                  -8.3
 8  O=C(NCc1ccc(F)cc1)C(c1ccccc1)N(C(=O)c1csnn1)C1CC1 (stereo unspecified)  inhibition                 -11.9
 9  O=C(c1ccc(OC2CCN(Cc3ccccn3)CC2)cc1)N1CCCCCC1  inhibition                    -6
10  CC(=O)Nc1ccc(C(=O)CSc2nc3ccc(C)cc3[nH]2)cc1  inhibition                 -33.5

Moving on to another molecule below.
Query: Name the reported inhibition value associated with the molecule CCOC(=O)c1cc2c(=O)[nH]c(C(Cl)(Cl)Cl)nc2o1
Reply: -11

The reported measurements were obtained from PubChem BioAssay AID1012.
